Cited source: patent US20070078092A1

# Measured On: protein kinase B (PKB)
# Experiment Notes: cell-based or functional assay
Square brackets hold non-standard residues; d marks the D form. * marks the point of attachment. Cholesteryloxycarbonyl = CC(C)CCC[C@@H](C)[C@H]1CC[C@H]2[C@@H]3CC=C4C[C@@H](OC(=O)*)CC[C@]4(C)[C@H]3CC[C@]12C; hLeu = CC(C)CC[C@H](N)C(=O)O; Nva = CCC[C@H](N)C(=O)O; Dap = NC[C@H](N)C(=O)O
Result Type: IC50, in vitro kinase assay PKB
Hi, when you answer, please include the unit after the number. Thanks!

Query :: Read off the recorded IC50, in vitro kinase assay PKB for Cholesteryloxycarbonyl-GGGRPR[Nva]Y[Dap][hLeu]-NH2 (SMILES CCC[C@H](NC(=O)[C@H](CCCNC(=N)N)NC(=O)[C@@H]1CCCN1C(=O)[C@H](CCCNC(=N)N)NC(=O)CNC(=O)CNC(=O)CNC(=O)O[C@H]1CC[C@@]2(C)C(=CC[C@H]3[C@@H]4CC[C@H]([C@H](C)CCCC(C)C)[C@@]4(C)CC[C@@H]32)C1)C(=O)N[C@@H](Cc1ccc(O)cc1)C(=O)N[C@@H](CN)C(=O)N[C@@H](CCC(C)C)C(N)=O) [PTR 6330]
Result :: 1 µM
